The reported measurements were obtained from patent US20260347486.

# study-target: T1, IL-18Rβ ECD (human)
# T1 chain: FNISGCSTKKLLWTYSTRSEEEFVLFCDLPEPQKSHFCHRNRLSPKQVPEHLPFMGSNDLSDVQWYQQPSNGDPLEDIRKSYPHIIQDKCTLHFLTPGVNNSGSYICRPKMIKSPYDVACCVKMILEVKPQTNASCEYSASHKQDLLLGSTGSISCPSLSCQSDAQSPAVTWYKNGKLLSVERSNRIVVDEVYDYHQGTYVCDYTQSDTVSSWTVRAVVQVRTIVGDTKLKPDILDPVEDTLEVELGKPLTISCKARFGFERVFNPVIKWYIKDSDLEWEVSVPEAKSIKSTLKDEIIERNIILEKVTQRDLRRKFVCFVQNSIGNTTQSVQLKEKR
# method-summary: BLI
observable: binding result

# binder, reported-result
rows = [
    ("ms_IL18R_VHHα6 (antibody, V domains shown) VH: DVPLQESGGGSVQPGGSLRLSCAASKSIFSINAMRWHRQAPGKQRELVATFTSSGRINYADSVKGRFTISTDNAKNTIYLQMNSLNPEDTAVYRCNVGLWEDGLWYDYWGQGTQVTVSS", "no binding"),
    ("ms_IL18R_VHHα2 (antibody, V domains shown) VH: DVQLQESGGGLVQAGGSLRLSCAASGFTLLDSYDIGWFRQAPGKKREEVSCISSSGGKSTYYADSVKGRFTISRDNANNTVYLQMNSLKPEDTAVYYCAADGAEGFWSCQSGGYDYWGQGTQVTVSS", "no binding"),
]
